All values here come from ChEMBL document CHEMBL3351493.

Reported IC50 values for the following compounds.
- system name: Methionine aminopeptidase (Staphylococcus aureus (strain COL))
- Sequence (Q5HEN6 whole entry): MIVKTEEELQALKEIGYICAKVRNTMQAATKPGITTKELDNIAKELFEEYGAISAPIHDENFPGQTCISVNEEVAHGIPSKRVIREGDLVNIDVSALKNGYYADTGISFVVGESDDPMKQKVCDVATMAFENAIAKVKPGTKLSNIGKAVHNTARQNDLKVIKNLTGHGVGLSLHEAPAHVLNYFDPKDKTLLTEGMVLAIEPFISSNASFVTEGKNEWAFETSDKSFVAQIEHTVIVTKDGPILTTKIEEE
- method summary: Inhibition of N-terminal poly-His-tagged Staphylococcus aureus COL MetAP expressed in Escherichia coli BL21(DE3) incubated for 30 mins before MGMM substrate addition by fluorescence assay
- Set-up: species or system Staphylococcus aureus subsp. aureus COL
- particulars: read-out: IC50
endpoint name: IC50

• C=C1Cc2cc(OC)c(OC)cc2C1=O = 18.9 µM
• COc1ccc2c(c1)C(=O)C(CN(C)C)C2.Cl (stereo not given) = 17 µM
• CN(C)CC1Cc2cc(Br)ccc2C1=O.Cl (stereo not given) = 7.8 µM
• COc1cc2c(cc1OC)C(=O)C(CN(C)C)C2.Cl (stereo not given) = 18.9 µM
• Cc1ccc2c(c1)CC(CN(C)C)C2=O.Cl (stereo not given) = 32 µM
